# MEASUREMENT_DESCRIPTION: activity coefficient (dimensionless); of the first substance listed, at infinite dilution; xn = mol fraction of the nth substance listed
# EXPERIMENTAL_CONDITIONS: 323.15 K; Liquid; Chromatography; x1 = 0
Each entry falls in a class defined on activity coefficient; the bands are bin A: < 1; bin B: ≥ 1 and < 10; bin C: ≥ 10

Below, 4 molecules whose answers are already recorded.
- CCCCO [butan-1-ol] + CCCCCCCCn1cc[n+](COCCCOC[n+]2ccn(CCCCCCCC)c2C)c1C.N#C[N-]C#N.N#C[N-]C#N: bin B
- CCCCO [butan-1-ol] + Cn1cc[n+](COCCCOC[n+]2ccn(C)c2)c1.N#C[N-]C#N.N#C[N-]C#N: bin B
- CCCCCCCCCCC [undecane] + N#C[N-]C#N.N#C[N-]C#N.c1ccc(Cn2cc[n+](COCCCOC[n+]3ccn(Cc4ccccc4)c3)c2)cc1: bin C
- CCCCCCCC [octane] + CCCOC[n+]1ccc(N(C)C)cc1.O=S(=O)([N-]S(=O)(=O)C(F)(F)F)C(F)(F)F: bin C

Please look at the following molecule next.
Please report the category associated with C1CCCCC1 [cyclohexane] + CCCCCCCCn1cc[n+](COCCCOC[n+]2ccn(CCCCCCCC)c2C)c1C.N#C[N-]C#N.N#C[N-]C#N , nothing else.
bin B

---

# MEASUREMENT_DESCRIPTION: activity coefficient (dimensionless); of the first substance listed, at infinite dilution; xn = mol fraction of the nth substance listed
# EXPERIMENTAL_CONDITIONS: 323.15 K; Liquid; Chromatography; x1 = 0
OBSERVED_PROPERTY: activity coefficient
Keep it simple and answer with nothing but the number.

Solved cases (4 shown):
* C=CCCCC [hex-1-ene] + Cn1cc[n+](COCCCOC[n+]2ccn(C)c2)c1.O=S(=O)([N-]S(=O)(=O)C(F)(F)F)C(F)(F)F.O=S(=O)([N-]S(=O)(=O)C(F)(F)F)C(F)(F)F | 15.1
* CCCO [propan-1-ol] + Cn1cc[n+](COCCCOC[n+]2ccn(C)c2)c1.N#C[N-]C#N.N#C[N-]C#N | 1.22
* CC(C)CO [2-methyl-1-propanol] + CCCOC[n+]1ccc(N(C)C)cc1.O=S(=O)([N-]S(=O)(=O)C(F)(F)F)C(F)(F)F | 2.03
* Cc1ccc(C)cc1 [1,4-dimethylbenzene] + CCCOC[n+]1ccn(C)c1.F[B-](F)(F)F | 10.7

--- query ---
Look up activity coefficient: ClC(Cl)Cl [trichloromethane] + CCCOC[n+]1ccn(Cc2ccccc2)c1.O=S(=O)([N-]S(=O)(=O)C(F)(F)F)C(F)(F)F
0.73

---

# MEASUREMENT_DESCRIPTION: activity coefficient (dimensionless); of the first substance listed, at infinite dilution; xn = mol fraction of the nth substance listed
# EXPERIMENTAL_CONDITIONS: 323.15 K; Liquid; Chromatography; x1 = 0
OBSERVED_PROPERTY: activity coefficient
Reply with the value as a number alone.

- Cc1ccc(C)cc1 [1,4-dimethylbenzene] + Cn1cc[n+](COCCCOC[n+]2ccn(C)c2)c1.N#C[N-]C#N.N#C[N-]C#N: 10.5
- ClCCl [dichloromethane] + CCCOC[n+]1ccn(C)c1.N#C[N-]C#N: 0.69
- C[N+](=O)[O-] [nitromethane] + CCCOC[n+]1ccn(Cc2ccccc2)c1.F[B-](F)(F)F: 0.58
- CC(C)O [propan-2-ol] + CCCOC[n+]1ccn(C)c1.N#C[N-]C#N: 1.1
- C#CCCCCC [1-heptyne] + CCCCCCCCn1cc[n+](COCCC)c1C.N#C[N-]C#N: 2.11

Which activity coefficient is listed for CCCCCCC [heptane] + CCCOC[n+]1ccc(N(C)C)cc1.O=S(=O)([N-]S(=O)(=O)C(F)(F)F)C(F)(F)F ?
15.8

Name the recorded activity coefficient for C[N+](=O)[O-] [nitromethane] + Cn1cc[n+](COCCCOC[n+]2ccn(C)c2)c1.O=S(=O)([N-]S(=O)(=O)C(F)(F)F)C(F)(F)F.O=S(=O)([N-]S(=O)(=O)C(F)(F)F)C(F)(F)F .
0.31

# activity coefficient lookup, item C[N+](=O)[O-] [nitromethane] + N#C[N-]C#N.N#C[N-]C#N.c1ccc(Cn2cc[n+](COCCCOC[n+]3ccn(Cc4ccccc4)c3)c2)cc1
0.86

---

# MEASUREMENT_DESCRIPTION: activity coefficient (dimensionless); of the first substance listed, at infinite dilution; xn = mol fraction of the nth substance listed
# EXPERIMENTAL_CONDITIONS: 323.15 K; Liquid; Chromatography; x1 = 0
Criterion: activity coefficient strictly under 2. Met: Met. Not met: Not met.

Answered examples (2):
* c1ccncc1 [pyridine] + CCCCCCCCn1cc[n+](COCCCOC[n+]2ccn(CCCCCCCC)c2C)c1C.N#C[N-]C#N.N#C[N-]C#N | Met
* C1CCCCC1 [cyclohexane] + CCCOC[n+]1ccn(C)c1.O=S(=O)([N-]S(=O)(=O)C(F)(F)F)C(F)(F)F | Not met

Hello, I'm reviewing records and need to know if activity coefficient of Cc1ccc(C)cc1 [1,4-dimethylbenzene] + Cn1cc[n+](COCCCOC[n+]2ccn(C)c2)c1.O=S(=O)([N-]S(=O)(=O)C(F)(F)F)C(F)(F)F.O=S(=O)([N-]S(=O)(=O)C(F)(F)F)C(F)(F)F is below 2. Could you check?
Not met

Strictly below 2: is that where activity coefficient of CCCCCCCCCCCC [dodecane] + CCCOC[n+]1ccn(C)c1.N#C[N-]C#N sits?
Not met

Strictly below 2: is that where activity coefficient of CCC(=O)CC [pentan-3-one] + CCCOC[n+]1ccn(C)c1.O=S(=O)([N-]S(=O)(=O)C(F)(F)F)C(F)(F)F sits?
Met

---

# MEASUREMENT_DESCRIPTION: activity coefficient (dimensionless); of the first substance listed, at infinite dilution; xn = mol fraction of the nth substance listed
# EXPERIMENTAL_CONDITIONS: 343.15 K; Liquid; Chromatography; x1 = 0
OBSERVED_PROPERTY: activity coefficient
Form: value (number only, do not type unit).

- C#CCCCCC [1-heptyne] + CCCCCCCCn1cc[n+](COCCCOC[n+]2ccn(CCCCCCCC)c2C)c1C.O=S(=O)([N-]S(=O)(=O)C(F)(F)F)C(F)(F)F.O=S(=O)([N-]S(=O)(=O)C(F)(F)F)C(F)(F)F: 1.41

Can you share its activity coefficient? I mean this molecule: CCCCCC [hexane] + CCCOC[n+]1ccn(Cc2ccccc2)c1.O=S(=O)([N-]S(=O)(=O)C(F)(F)F)C(F)(F)F
6.92

For CCOCC [diethyl ether] + CCCCCCCCn1cc[n+](COCCCOC[n+]2ccn(CCCCCCCC)c2C)c1C.O=S(=O)([N-]S(=O)(=O)C(F)(F)F)C(F)(F)F.O=S(=O)([N-]S(=O)(=O)C(F)(F)F)C(F)(F)F , what is its reported activity coefficient?
0.92

GET /values?readout=activity coefficient&item= CCC(C)CC [3-methylpentane] + CCCCCCCCn1cc[n+](COCCCOC[n+]2ccn(CCCCCCCC)c2C)c1C.O=S(=O)([N-]S(=O)(=O)C(F)(F)F)C(F)(F)F.O=S(=O)([N-]S(=O)(=O)C(F)(F)F)C(F)(F)F
3.13

Item CC#N [acetonitrile] + CCCOC[n+]1ccn(Cc2ccccc2)c1.N#C[N-]C#N has what recorded activity coefficient?
0.77

May I ask what activity coefficient has been recorded for c1ccccc1 [benzene] + N#C[N-]C#N.N#C[N-]C#N.c1ccc(Cn2cc[n+](COCCCOC[n+]3ccn(Cc4ccccc4)c3)c2)cc1 ?
2.92

Quick one: activity coefficient of Cc1ccccc1 [toluene] + CCCOC[n+]1ccn(C)c1.O=S(=O)([N-]S(=O)(=O)C(F)(F)F)C(F)(F)F ?
1.69

---

# MEASUREMENT_DESCRIPTION: activity coefficient (dimensionless); of the first substance listed, at infinite dilution; xn = mol fraction of the nth substance listed
# EXPERIMENTAL_CONDITIONS: 343.15 K; Liquid; Chromatography; x1 = 0
true means recorded activity coefficient is 2 or above; false means it is below 2.

* C1COCCO1 [1,4-dioxane] + Cn1cc[n+](COCCCOC[n+]2ccn(C)c2)c1.O=S(=O)([N-]S(=O)(=O)C(F)(F)F)C(F)(F)F.O=S(=O)([N-]S(=O)(=O)C(F)(F)F)C(F)(F)F | false
* CC#N [acetonitrile] + CCCCCCCCn1cc[n+](COCCCOC[n+]2ccn(CCCCCCCC)c2C)c1C.O=S(=O)([N-]S(=O)(=O)C(F)(F)F)C(F)(F)F.O=S(=O)([N-]S(=O)(=O)C(F)(F)F)C(F)(F)F | false
* ClC(Cl)Cl [trichloromethane] + CCCCCCCCn1cc[n+](COCCC)c1C.N#C[N-]C#N | false
* C1CCCCC1 [cyclohexane] + CCCOC[n+]1ccn(C)c1.O=S(=O)([N-]S(=O)(=O)C(F)(F)F)C(F)(F)F | true
* CO [methanol] + CCCCCCCCn1cc[n+](COCCC)c1C.O=S(=O)([N-]S(=O)(=O)C(F)(F)F)C(F)(F)F | false

Is it the case that C=CCCCC [hex-1-ene] + CCCCCCCCn1cc[n+](COCCCOC[n+]2ccn(CCCCCCCC)c2C)c1C.O=S(=O)([N-]S(=O)(=O)C(F)(F)F)C(F)(F)F.O=S(=O)([N-]S(=O)(=O)C(F)(F)F)C(F)(F)F has activity coefficient reaching or exceeding 2?
true

Given the entry CC#N [acetonitrile] + CCCOC[n+]1ccn(Cc2ccccc2)c1.F[B-](F)(F)F , answer whether its activity coefficient meets or surpasses 2.
false

Does the compound CCCCO [butan-1-ol] + CN(C)c1cc[n+](COCCCOC[n+]2ccc(N(C)C)cc2)cc1.O=S(=O)([N-]S(=O)(=O)C(F)(F)F)C(F)(F)F.O=S(=O)([N-]S(=O)(=O)C(F)(F)F)C(F)(F)F have recorded activity coefficient that is 2 or more?
false

Does activity coefficient meet or surpass 2 for CCCCCCCCCCC [undecane] + CCCCCCCCn1cc[n+](COCCCOC[n+]2ccn(CCCCCCCC)c2C)c1C.O=S(=O)([N-]S(=O)(=O)C(F)(F)F)C(F)(F)F.O=S(=O)([N-]S(=O)(=O)C(F)(F)F)C(F)(F)F ?
true

Please tell me: is the compound CCCO [propan-1-ol] + N#C[N-]C#N.N#C[N-]C#N.c1ccc(Cn2cc[n+](COCCCOC[n+]3ccn(Cc4ccccc4)c3)c2)cc1 at or over 2 in terms of activity coefficient?
false

# bool: activity coefficient of CCO [ethanol] + N#C[N-]C#N.N#C[N-]C#N.c1ccc(Cn2cc[n+](COCCCOC[n+]3ccn(Cc4ccccc4)c3)c2)cc1 >= 2
false

Could you tell me if the measured activity coefficient of CCCCCCCC [octane] + CCCOC[n+]1ccn(C)c1.O=S(=O)([N-]S(=O)(=O)C(F)(F)F)C(F)(F)F reaches 2 or more?
true

Is it the case that C#CCCCCC [1-heptyne] + CCCOC[n+]1ccc(N(C)C)cc1.O=S(=O)([N-]S(=O)(=O)C(F)(F)F)C(F)(F)F has activity coefficient reaching or exceeding 2?
true

Answer whether activity coefficient of CCC(C)=O [butanone] + CCCCCCCCn1cc[n+](COCCC)c1C.N#C[N-]C#N is greater than or equal to 2.
false

Answer whether activity coefficient of C1CCCCCC1 [cycloheptane] + CCCCCCCCn1cc[n+](COCCC)c1C.O=S(=O)([N-]S(=O)(=O)C(F)(F)F)C(F)(F)F is greater than or equal to 2.
true

Please indicate if the recorded activity coefficient for CCCCCCCCCCCC [dodecane] + CN(C)c1cc[n+](COCCCOC[n+]2ccc(N(C)C)cc2)cc1.O=S(=O)([N-]S(=O)(=O)C(F)(F)F)C(F)(F)F.O=S(=O)([N-]S(=O)(=O)C(F)(F)F)C(F)(F)F meets or exceeds 2.
true

Does the reported activity coefficient for CC(C)O [propan-2-ol] + CCCOC[n+]1ccn(C)c1.N#C[N-]C#N fall at or above the 2 mark?
false

Hey, just so you know, these numbers are from the NIST ThermoML archive (doi:10.1016/j.fluid.2014.11.020).
